Reported cytotoxicity at 10 µM values for the following molecules.
methodSummary: Toxicity liver stage against HepG2, at 10uM
Type: cell-based
Set-up: test concentration 10 uM, cell line HepG2-A16-CD81EGFP
experimentalSetup: human, HepG2-A16-CD81EGFP cells; read-out: INHIBITION

- molecule: "Cc1ncsc1CN1C[C@@H](OCc2ccncc2)[C@H]2OCCC[C@H]21"
  experimentalEndpoint: "cytotoxicity at 10 µM"
  reportedValue: "-148%"

Entry Cc1oc(-c2ccoc2)nc1CN1CCC[C@H]1CO : reported cytotoxicity at 10 µM = ?
-16.5%

Entry CC(C)c1nccn1C1CCCN(C(=O)c2ccnc(N(C)C)c2)C1 (stereo unspecified) : reported cytotoxicity at 10 µM = ?
5.1%

Entry CO[C@@H]1CCN(Cc2cnn(C)c2)[C@@H]2CN(Cc3ccco3)C[C@@H]21 : reported cytotoxicity at 10 µM = ?
-12.5%

Entry O=C(c1cnccn1)N1CCN(Cc2cccnc2)c2ncccc2C1 : reported cytotoxicity at 10 µM = ?
-1.52%

Entry O=C(c1ccoc1)N1CC[C@@H]2O[C@@H](COCc3ccncc3)CC[C@@H]21 : reported cytotoxicity at 10 µM = ?
-80.4%

Entry COC(=O)N1CCN(c2ncnc3nc(C)cc(C)c23)CC1 : reported cytotoxicity at 10 µM = ?
-15.2%
